Where do the numbers come from? From the supplement of paper PMC9170038.

Tested on: MS2 coat protein
Assay remarks: apparent KD of MS2 coat protein; designed switch direction (-1 OFF switch, 1 ON switch): -1; higher = weaker reporter binding
Condition context: input ligand: FMN 200 uM
apparent KD of MS2 coat protein listing for selected sequences.
Answer in nM, number only, no unit symbol.

>  <Sequence>
CGGCUGUGAGGAUAUGCCAGGCCGGGCACUCCGCCGCCAGCGCAGAAGGCACAUGAGGAUCACCCAUGUCAAAG [Eternabot (L2) Solution 82] (Eterna round: R97, puzzle: Exclusion 4)

>  <apparent KD of MS2 coat protein / nM>
27.5

$$$$
>  <Sequence>
UUUUAGUCAGGAUAUACAUGAGGAUCACCCAUGUAAAAUUUUAAUUUAAUUUUAAGGUGUAGAAGGGACAACCC [Ex3 #13] (Eterna round: R97, puzzle: Exclusion 3)

>  <apparent KD of MS2 coat protein / nM>
26.6

$$$$
>  <Sequence>
CAGUACUGAGGAUAUACAUGAGGAUCACCCAUGUGUUCCUGCUAGGAAACUAGCAAAGGUAGAAGGCAGUACUG [Salish 065 m3] (Eterna round: R97, puzzle: Exclusion 3)

>  <apparent KD of MS2 coat protein / nM>
464

$$$$

Shift focus to the following entry.
Readout apparent KD of MS2 coat protein for UUUGUACAUGAGGAUCACCCAUGUCAGGAUAUGUCAUCGCCGUCUGCCAGACGGCGUCACAGAAGGGACAUGCA [EX1 C.16] (Eterna round: R97, puzzle: Exclusion 1) , test system MS2 coat protein, was 104
